# TEST_SUMMARY: Pharmacokinetic study of 15 LJF components in plasma of RSV-infected mice after oral LJF extract (UHPLC-QQQ MS)
# Assay type: in vivo
# PARTICULARS: mouse, in vivo; RSV mice plasma, oral LJF extract 12.0 g/kg, n = 6; read-out: AUC(0–∞)
MEASURED_PROPERTY: AUC(0-inf) (ng·h/mL)
Write the value in ng·h/mL as a bare number.

O=c1cc(-c2ccc(O)c(O)c2)oc2cc(O[C@@H]3O[C@H](CO)[C@@H](O)[C@H](O)[C@H]3O)cc(O)c12 [Luteoloside] :: 15.9

Could you now look at the following compound, please?
(Q) What AUC(0-inf) value was documented for this compound, O=c1c(O[C@@H]2O[C@H](CO)[C@@H](O)[C@H](O)[C@H]2O)c(-c2ccc(O)c(O)c2)oc2cc(O)cc(O)c12 ?
(A) 39.6

Data credit: paper PMC10537356
